EXPERIMENTAL_TARGET: Rac GTPase-activating protein 1 (Homo sapiens)
ASSAY_NAME: blockers of MgcRacGAP-driven Rac1 GTP hydrolysis – biochemical, ADP Hunter fluorescence, primary and confirmatory, confirmation (AID 624330);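 note: fluorescence reports GDP produced by GAP-driven GTP hydrolysis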
REPORTED_CONDITIONS: MgcRacGAP-stimulated Rac1 GTP hydrolysis, at 30 µM, hits give high values, GST-tagged Rac1 F28L mutant substrate
Screen size: about 340,000 compounds; about 2,100 (0.62%) were called active. The list is a sample of the results. Results with a measured potency or affinity are listed apart.
READOUT: inhibition (%)

>>> value_measured("CC1CC(C)CN(C(=O)c2ccc(CSc3nc4ccncc4[nH]3)cc2)C1 (stereo not given)")
4.54
>>> value_measured("CC(=O)c1ccc(N2CCN(C(=O)c3noc4c3CSc3ccccc3-4)CC2)cc1")
10.2
>>> value_measured("O=C1c2ccccc2NC(c2ccccn2)N1c1ccccc1F (stereo not given)")
6.7
>>> value_measured("CCOC(=O)N1CCN(Cc2nc(-c3ccc(Cl)cc3)no2)CC1")
0.28
>>> value_measured("CC(C)C[C@@H](C(=O)O)N(Cc1cccc(CN([C@@H](CC(C)C)C(=O)O)S(C)(=O)=O)c1)S(C)(=O)=O")
9.29

###

EXPERIMENTAL_TARGET: Rac GTPase-activating protein 1 (Homo sapiens) (UniProt Q9H0H5)
Sequence (Q9H0H5 whole entry, looked up): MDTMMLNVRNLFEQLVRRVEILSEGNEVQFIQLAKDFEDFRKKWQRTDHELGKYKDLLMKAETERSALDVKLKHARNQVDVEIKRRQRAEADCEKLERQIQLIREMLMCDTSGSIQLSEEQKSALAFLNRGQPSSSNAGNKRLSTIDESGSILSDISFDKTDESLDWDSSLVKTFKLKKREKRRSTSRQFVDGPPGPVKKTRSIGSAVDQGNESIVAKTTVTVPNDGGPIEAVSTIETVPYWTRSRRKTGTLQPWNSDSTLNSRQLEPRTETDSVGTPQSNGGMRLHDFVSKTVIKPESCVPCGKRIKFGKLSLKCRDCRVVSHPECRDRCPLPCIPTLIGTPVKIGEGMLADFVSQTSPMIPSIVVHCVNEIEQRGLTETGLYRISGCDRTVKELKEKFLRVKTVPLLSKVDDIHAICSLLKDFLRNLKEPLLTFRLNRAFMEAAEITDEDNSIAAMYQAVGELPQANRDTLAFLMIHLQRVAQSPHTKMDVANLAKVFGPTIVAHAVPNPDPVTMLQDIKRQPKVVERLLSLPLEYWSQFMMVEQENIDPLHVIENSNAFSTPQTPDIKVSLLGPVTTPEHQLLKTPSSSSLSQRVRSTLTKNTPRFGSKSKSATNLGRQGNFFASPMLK
ASSAY_NAME: blockers of MgcRacGAP-driven Rac1 GTP hydrolysis – biochemical, ADP Hunter fluorescence, primary and confirmatory, confirmation (AID 624330);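 note: fluorescence reports GDP produced by GAP-driven GTP hydrolysis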
REPORTED_CONDITIONS: MgcRacGAP-stimulated Rac1 GTP hydrolysis, at 30 µM, hits give high values, GST-tagged Rac1 F28L mutant substrate
Out of some 340,000 compounds screened, about 2,100 (0.62%) were called active. Not all results are given here. Potency and affinity values are given separately.
Some compounds, each annotated with its measured inhibition.
READOUT: inhibition (%)

>>> value_measured("Cc1nc(N2CCN(c3ccccc3F)CC2)[nH]c(=O)c1C")
6.5
>>> value_measured("Cc1ccc(-c2nn(CCC(=O)O)cc2/C=C\\C(=O)c2ccc(Br)cc2)cc1")
-9.64
>>> value_measured("O=C1C=C(Nc2cccc(O)c2)CC(c2ccco2)C1 (configuration not stated)")
9.63
>>> value_measured("Cc1ccc(NC(=O)N/C=C/c2ccco2)c(C)c1")
7.78
>>> value_measured("O=C1c2ccccc2C(=O)N1c1nc(-c2cccs2)cs1")
13.9
>>> value_measured("Nc1cccc(-c2nc3ccc(N)cc3s2)c1")
10.5
>>> value_measured("O=C(CSc1ccccc1)N1CCN(c2ccccc2)CC1")
10.2
>>> value_measured("O=Cc1cn(CCC(=O)O)nc1-c1cccc(Br)c1")
-0.73
>>> value_measured("COc1ccc(N2CCN(C(CNC(C)=O)c3ccc4c(c3)OCO4)CC2)cc1 (configuration not stated)")
11.6
>>> value_measured("O=C(O)CCn1cc(/C=C2/NC(=S)N(c3ccccc3)C2=O)c(-c2ccccc2)n1")
7.18
>>> value_measured("COc1ccc(N=C2S/C(=C\\c3cccs3)C(=O)N2CC(C)C)cc1")
12.5
>>> value_measured("CCN(CC)c1ccc(C=Nc2ccc(N(C)C)cc2)c(O)c1")
19.7
>>> value_measured("Cc1ccc(S(=O)(=O)NCCc2ccncc2)cc1[N+](=O)[O-]")
2.26
>>> value_measured("Cc1ccnc(NS(=O)(=O)c2ccc(NC(=O)c3snnc3C)cc2)n1")
15.1
>>> value_measured("Cn1c(O)c(C=Nc2ccc(N3CCOCC3)cc2)c(=O)n(C)c1=S")
10.4
>>> value_measured("O=C(NCc1cccnc1)c1ccc([N+](=O)[O-])cc1")
6.96
>>> value_measured("Cc1c(Cl)cccc1Nc1ccccc1C(=O)O")
3.44
>>> value_measured("Cc1nc2ccc(N)cc2s1")
5.78
>>> value_measured("O=C(O)CCn1cc(C(=O)O)c(-c2ccccc2)n1")
9.41
>>> value_measured("O=C1C=C(Nc2ccc(Cl)cc2)CC(c2ccco2)C1 (configuration not stated)")
5.91
>>> value_measured("Cc1nnc(SCC(=O)Nc2nccs2)s1")
1.9
>>> value_measured("Cc1cc(O)c(C=Nc2ccc(N3CCOCC3)cc2)c(C)c1Cl")
24.8
>>> value_measured("COc1ccc(C(=O)Nc2ccncc2)c(OC)c1")
13.1
>>> value_measured("O=[N+]([O-])c1cc(Br)c(O)c(C=Nc2ccc(N3CCOCC3)cc2)c1")
54.6
>>> value_measured("COc1ccc(NC(=O)CSc2nc(N)c(C(=O)Nc3ccc(N(C)C)cc3)s2)cc1")
16.4
>>> value_measured("Cc1ccc(NC(=O)CCn2c(=O)c3cccn3c3ccccc32)cc1C")
7.75
>>> value_measured("C=CCn1c(SC(C)C(=O)NC2CC2)nnc1-c1ccoc1C (configuration not stated)")
4.4
>>> value_measured("O=C(O)CCn1cc(/C=C2\\NC(=S)N(c3ccccc3)C2=O)c(-c2ccc(Br)cc2)n1")
0.36
>>> value_measured("CCN(CC)C(=O)CSc1nc(N)c(C(=O)Nc2ccc(OC)cc2)s1")
14
>>> value_measured("O=C(NCc1ccco1)c1ccc(S(=O)(=O)N2CCOCC2)cc1")
12.1
>>> value_measured("Cc1ccccc1OCCCN1CCCC1")
26.5
>>> value_measured("CN(C)S(=O)(=O)c1cccc(C(=O)c2nccn2C)c1")
2.41
>>> value_measured("COc1cccc(-c2c(C(=O)N/N=C(\\C)c3ccco3)nnn2-c2nonc2N)c1")
3.24
>>> value_measured("O=C(Nc1cc(Br)ccc1O)c1cc(-c2ccco2)on1")
8.94
>>> value_measured("COc1ccc(C(CNC(=O)c2cc(C)oc2C)N2CCOCC2)cc1 (configuration not stated)")
-3.27
>>> value_measured("COc1ccc(N=Cc2ccccc2O)cc1")
7.18
>>> value_measured("Cc1ccc(N=Cc2ccc(O)cc2O)cc1F")
2.37
>>> value_measured("Nc1ccc(-c2nc3cc(N)ccc3s2)cc1")
7.4
>>> value_measured("COC(=O)Cn1c(=NC(=O)C2COc3ccccc3O2)sc2cc(S(N)(=O)=O)ccc21 (configuration not stated)")
3.94
>>> value_measured("COc1cc2c(cc1NC(=O)c1ccc(C)c([N+](=O)[O-])c1)oc1ccccc12")
8.23
>>> value_measured("COc1ccc(C(=O)NCC(c2ccc3c(c2)OCO3)N2CCN(c3ccc(OC)cc3)CC2)cc1 (configuration not stated)")
7.8
>>> value_measured("Cc1ccc(OCCCCN2CCCCC2)c(C)c1")
2.28
>>> value_measured("O=C(O)C1(P(=O)(c2ccc(Cl)cc2)c2ccc(Cl)cc2)CCCC1")
10.3
>>> value_measured("CC1C(=O)Nc2ccc(S(=O)(=O)NCc3ccc(Cl)cc3)cc2NC1=O (configuration not stated)")
7.58
>>> value_measured("Cc1csc(=O)n1CCC(=O)OCC(=O)Nc1ccc(Cl)cn1")
4.45
>>> value_measured("CN(C)c1ccc(NC(=O)c2sc(SCC(=O)Nc3ccc(Br)cc3)nc2N)cc1")
10.8
>>> value_measured("Nc1n[nH]c(N)c1N=Nc1ccc(F)cc1")
12.4
